Exercise: state measured IC50 for each of the molecules provided.
# Tested on: PC-3 cells
# assay text: MTT cell proliferation assay, PC-3
# Assay type: cell-based, human
# experimental conditions: Homo sapiens, PC-3, 48 h

**Query** Give the measured IC50 of `COc1ccc2c(c1OCCCCS(=O)(=O)O)C(=O)O[C@@H]2[C@H]1c2c(cc3c(c2OC)OCO3)CCN1C` .
**Result** 19 µM

**Query** One more molecule: `COc1ccc2c(c1OCCCS(=O)(=O)O)C(=O)O[C@@H]2[C@H]1c2c(cc3c(c2OC)OCO3)CCN1C`
**Result** 275 µM

**Query** One more molecule: `COc1ccc2c(c1OCCCS(=O)(=O)O)C(=O)O[C@@H]2[C@H]1c2c(c(Br)c3c(c2OC)OCO3)CCN1C`
**Result** 55 µM

**Query** One more molecule: `COc1ccc2c(c1OC)C(=O)O[C@@H]2[C@H]1c2c(c(NCCCCS(=O)(=O)O)c3c(c2OC)OCO3)CCN1C`
**Result** 490 µM

**Query** One more molecule: COc1ccc2c(c1OC)C(=O)O[C@@H]2[C@H]1c2c(cc3c(c2OC)OCO3)CCN1C [Compound 1, Noscapine, reference compound]
**Result** 100 µM

###

Exercise: state measured C0 for each of the molecules provided.
# assay text: Pharmacokinetics after intravenous administration
# Assay type: in vivo, CD-1 mice
# experimental conditions: male, CD-1, mouse, plasma, iv, 5 mg/kg
Reply with a number, then the unit it belongs to.

**Query** Give the measured C0 of COc1ccc2c(c1OC)C(=O)O[C@@H]2[C@H]1c2c(cc3c(c2OC)OCO3)CCN1C [Compound 1, Noscapine, reference compound] .
**Result** 1210 ng/mL

**Query** One more molecule: `COc1ccc2c(c1OCCCS(=O)(=O)O)C(=O)O[C@@H]2[C@H]1c2c(c(Br)c3c(c2OC)OCO3)CCN1C`
**Result** 307 ng/mL

**Query** One more molecule: `COc1ccc2c(c1OCCCCS(=O)(=O)O)C(=O)O[C@@H]2[C@H]1c2c(cc3c(c2OC)OCO3)CCN1C`
**Result** 502 ng/mL

###

# Test system: MAPs-rich tubulin
# assay text: Light scattering assay of MAPs-rich tubulin polymerization
# Format: biochemical, goat
# experimental conditions: 50 µM compound, 1 mg/ml MAPs-rich tubulin, 37°C, 400 nm
result type: Percent decrease in light scattering of MAP-tubulin (%)
Your answer should be a plain number; it is taken to be in %.

**Query** Give the measured Percent decrease in light scattering of MAP-tubulin of `COc1ccc2c(c1OC)C(=O)O[C@@H]2[C@H]1c2c(c(NCCCS(=O)(=O)O)c3c(c2OC)OCO3)CCN1C` .
**Result** 27

**Query** One more compound: COc1ccc2c(c1OC)C(=O)O[C@@H]2[C@H]1c2c(cc3c(c2OC)OCO3)CCN1C [Compound 1, Noscapine, reference compound]
**Result** 11

**Query** One more compound: `COc1ccc2c(c1OCCCCS(=O)(=O)O)C(=O)O[C@@H]2[C@H]1c2c(c(Br)c3c(c2OC)OCO3)CCN1C`
**Result** 68

###

# assay text: Pharmacokinetics after intravenous administration
# Assay type: in vivo, CD-1 mice
# experimental conditions: male, CD-1, mouse, plasma, iv, 5 mg/kg
result type: clearance (mL/min/kg)
Your answer should be a plain number; it is taken to be in mL/min/kg.

**Query** Give the measured clearance of `COc1ccc2c(c1OCCCCS(=O)(=O)O)C(=O)O[C@@H]2[C@H]1c2c(cc3c(c2OC)OCO3)CCN1C` .
**Result** 369

**Query** One more compound: COc1ccc2c(c1OC)C(=O)O[C@@H]2[C@H]1c2c(cc3c(c2OC)OCO3)CCN1C [Compound 1, Noscapine, reference compound]
**Result** 174

**Query** One more compound: `COc1ccc2c(c1OCCCS(=O)(=O)O)C(=O)O[C@@H]2[C@H]1c2c(c(Br)c3c(c2OC)OCO3)CCN1C`
**Result** 584

###

# assay text: Pharmacokinetics after intravenous administration
# Format: in vivo, CD-1 mice
# experimental conditions: male, CD-1, mouse, plasma, iv, 5 mg/kg
Exercise: state measured AUC(0-t) for each of the compounds provided.
Your answer should be a plain number; it is taken to be in ng·h/mL.

**Query** Give the measured AUC(0-t) of `COc1ccc2c(c1OCCCS(=O)(=O)O)C(=O)O[C@@H]2[C@H]1c2c(c(Br)c3c(c2OC)OCO3)CCN1C` .
**Result** 133

**Query** One more compound: COc1ccc2c(c1OC)C(=O)O[C@@H]2[C@H]1c2c(cc3c(c2OC)OCO3)CCN1C [Compound 1, Noscapine, reference compound]
**Result** 479

**Query** One more compound: `COc1ccc2c(c1OCCCCS(=O)(=O)O)C(=O)O[C@@H]2[C@H]1c2c(cc3c(c2OC)OCO3)CCN1C`
**Result** 198

###

# assay text: Pharmacokinetics after intravenous administration
# Format: in vivo, CD-1 mice
# experimental conditions: male, CD-1, mouse, plasma, iv, 5 mg/kg
result type: Vd (L/kg)
Your answer should be a plain number; it is taken to be in L/kg.

**Query** Give the measured Vd of COc1ccc2c(c1OCCCS(=O)(=O)O)C(=O)O[C@@H]2[C@H]1c2c(c(Br)c3c(c2OC)OCO3)CCN1C [Compound 8c] .
**Result** 18.4

**Query** One more molecule: COc1ccc2c(c1OCCCCS(=O)(=O)O)C(=O)O[C@@H]2[C@H]1c2c(cc3c(c2OC)OCO3)CCN1C [Compound 6b]
**Result** 9.53

**Query** One more molecule: COc1ccc2c(c1OC)C(=O)O[C@@H]2[C@H]1c2c(cc3c(c2OC)OCO3)CCN1C [Compound 1, Noscapine, reference compound]
**Result** 4.55

###

# assay text: Pharmacokinetics after oral administration
# Type: in vivo, CD-1 mice
# experimental conditions: male, CD-1, mouse, plasma, po, 50 mg/kg
Exercise: state measured Tmax for each of the compounds provided.
Your answer should be a plain number; it is taken to be in min.

**Query** Give the measured Tmax of COc1ccc2c(c1OCCCS(=O)(=O)O)C(=O)O[C@@H]2[C@H]1c2c(c(Br)c3c(c2OC)OCO3)CCN1C [Compound 8c] .
**Result** 4.8

**Query** One more compound: COc1ccc2c(c1OCCCCS(=O)(=O)O)C(=O)O[C@@H]2[C@H]1c2c(cc3c(c2OC)OCO3)CCN1C [Compound 6b]
**Result** 4.8

**Query** One more compound: COc1ccc2c(c1OC)C(=O)O[C@@H]2[C@H]1c2c(cc3c(c2OC)OCO3)CCN1C [Compound 1, Noscapine, reference compound]
**Result** 4.8

###

# System: MAPs-rich tubulin
# assay text: Light scattering assay of MAPs-rich tubulin polymerization
# Type: biochemical, goat
# experimental conditions: 50 µM compound, 1 mg/ml MAPs-rich tubulin, 37°C, 400 nm
Exercise: state measured Percent decrease in light scattering of MAP-tubulin for each of the compounds provided.
Your answer should be a plain number; it is taken to be in %.

**Query** Give the measured Percent decrease in light scattering of MAP-tubulin of COc1ccc2c(c1OCCCCS(=O)(=O)O)C(=O)O[C@@H]2[C@H]1c2c(cc3c(c2OC)OCO3)CCN1C [Compound 6b] .
**Result** 74

**Query** One more compound: COc1ccc2c(c1OC)C(=O)O[C@@H]2[C@H]1c2c(c(NCCC[N+](C)(C)C)c3c(c2OC)OCO3)CCN1C.[Br-] [Compound 4a]
**Result** 29

**Query** One more compound: COc1ccc2c(c1OCCC[N+](C)(C)C)C(=O)O[C@@H]2[C@H]1c2c(cc3c(c2OC)OCO3)CCN1C.[Br-] [Compound 6a]
**Result** 19

**Query** One more compound: COc1ccc2c(c1OCCCS(=O)(=O)O)C(=O)O[C@@H]2[C@H]1c2c(cc3c(c2OC)OCO3)CCN1C [Compound 6c]
**Result** 32

**Query** One more compound: COc1ccc2c(c1OC)C(=O)O[C@@H]2[C@H]1c2c(c(NCCCCS(=O)(=O)O)c3c(c2OC)OCO3)CCN1C [Compound 4b]
**Result** 30

**Query** One more compound: COc1ccc2c(c1OCCC[N+](C)(C)C)C(=O)O[C@@H]2[C@H]1c2c(c(Br)c3c(c2OC)OCO3)CCN1C.[Br-] [Compound 8a]
**Result** 30

**Query** One more compound: COc1ccc2c(c1OCCCS(=O)(=O)O)C(=O)O[C@@H]2[C@H]1c2c(c(Br)c3c(c2OC)OCO3)CCN1C [Compound 8c]
**Result** 61
